Protocol text: soluble on expression in E. coli; label from the status in PepcDB or PDB records
Measurement type: soluble on expression in E. coli

In: Can you share its soluble on expression in E. coli? I mean this sequence: `RLADRMSQEGWEDPGSSSAQAAAIEHDTFGRDNDGDVILLFTAKDGIAHSPSFDKIKKYLDSLKTDHSDHVDAVTSYFDKRNAQLISKDGTTAFAAVSLRGDGEQTLKDFRAIESDLHPQFPEVTVQVAGSTAVADALDKGMSGDIKRAE`
Out: not soluble

In: Please give the result for `MSDSNTSSLPRAAQLEPDAAPAVAVLQQALQWQVIFWSGEATDRDRMRWQSWLAADPAHARAWAQVQRTDEQLQTLASPAAEVLRSADARRCKARRTVLGMAGLLAGAGIMGCGLRQTAQWQMMMADDHTGYGERRNIELADGTQVTLGSATAIDVCYSAQARQLLLRTGEIFIVTAPDSADRPFLVQTTRGSVQALGTRFNVRESGEQIQVAVQDGAVAIRPAGMNPGDVVRLDAGQQTCFDHTKVEAAEALQISATAWTRGLLVAERMRLEDFLVELGRYRSGVLRCDPAVRDLIVSGVYSLDDTDQSLRLLAQALPVQVQTVTRWWTIVGPRPMK` too.
Out: not soluble

---

Protocol text: soluble on expression in E. coli; label from the status in PepcDB or PDB records
Measurement type: soluble on expression in E. coli

In: Can you share its soluble on expression in E. coli? I mean this sequence: `MKFVDEASILVVAGDGGNGCVSFRREKYIPKGGPDGGDGGDGGDVWMEADENLNTLIDYRFEKSFRAERGQNGASRDCTGKRGKDVTIKVPVGTRVIDQGTGETMGDMTKHGQRLLVAKGGWHGLGNTRFKSSVNRTPRQKTNGTPGDKRELLLELMLLADVGMLGMPNAGKSTFIRAVSAAKPKVADYPFTTLVPSLGVVRMDNEKSFVVADIPGLIEGAAEGAGLGIRFLKHLERCRVLLHLIDIDPIDGTDPVENARIIISELEKYSQDLATKPRWLVFNKIDLLDKVEAEEKAKAIAEALGWEDKYYLISAASGLGVKDLCWDVMTFIIENPVVQAEEAKQPEKVEFMWDDYHRQQLEEIAEEDDEDWDDDWDEDDEEGVEFIYKR`
Out: soluble

In: Please give the result for `MGSDKIHHHHHHMGKSIRKIVNWKQYNQALVNRGSLTFWVDEAAVNTWYCHEHHGGRGRGFSYSDVAIETALMVKGIFNLSLRALEGFLNSLFTLMSVPLKSPDYTSISKRAKTVNIKYRNPSRGPIAHVVVDATGLKVFGEGEWKTRKHGSEKRRTWRKLHLAIDASTHEVVAAEVSLVSVGDNEVLPTLLNPLRRKITQVSADGAYDTKGCYQLLRRKGCKATIPPRSNAGLWEKRHPRNEAVEALKAGQLKHWKIDNGYHQRSLAETAMGRYKQLNSPMLSLRDYNGQVAEALAGVKAMNKVIRLGMPVRQQVA` too.
Out: not soluble

In: Please give the result for `MGSDKIHHHHHHMEQQIPFSYVIISPENATEKEGYMISTIDKCGFFFCQKGEVEVALNDKSYLISKGSVCIYMTGSLLRIQRISKDIKGIMLEVDLNYIIPIVNKIVNSENLLYLRENPCFSITEYQYNYLEQLIKALQQRMDIKAHDIPLQRQHLISELIKSWGQTLCYELLNVYFTNQPLKPLSQDKKDKIFQNFVITLFRYYQQERDVTFYASKQYLSSRYFSAVIKEKSGSTALQWIVQMVITEAKQLLENSDLTIKEIATKLNFPTQSFFGKYFKQYVGVSPKEYRNKQIRQLPF` too.
Out: not soluble

In: Please give the result for `MSTLKVVSSKLAAEIDKELMGPQIGFTLQQLMELAGFSVAQAVCRQFPLRGKTETEKGKHVFVIAGPGNNGGDGLVCARHLKLFGYNPVVFYPKRSERTEFYKQLVHQLNFFKVPVLSQDEGNWLEYLKPEKTLCIVDAIFGFSFKPPMREPFKGIVEELCKVQNIIPIVSVDVPTGWDVDKGPISQPSINPAVLVSLTVPKPCSSHIRENQTTHYVGGRFIPRDFANKFGFEPFGYESTDQILKL` too.
Out: soluble

Continuing:
In: Can you share its soluble on expression in E. coli? I mean this sequence: `MGSDKIHHHHHHAQETLRENNGEPTLVERLSNGEIKINSAEMNFQLFTSANAEFVGNELDGMNFKLNRVRLEIKGDVGKWLGYHYRQSFNKYSDPYSLDNLSSSLELAYVNLKARPNLNFTIGKQFVNFGGYEYYVNSIRVREFSEFNNLLTAYQAGISGNWQVSPDHELCFQIVNNRNGNDEDIYPTGLPEGTAKAKIPFMYTVNWNSYYLDKSLQLRYATAVGQQTRKRYSYYFTCGNTYEKGPLLTYLDVMYTRQGIDQHGVVSRLPGTPHTAMNTEYLSIIGDVDYRVHPQWNVYVKGAYETARVYKGNGDFRKGMYRRSWNAQSSVEFFPFKQLDLFVFVLYTYRGVILEKAATRMGAIEPDTHRISLGLVYSIPVF`
Out: not soluble

---

Protocol text: soluble on expression in E. coli; label from the status in PepcDB or PDB records
Measurement type: soluble on expression in E. coli

In: Can you share its soluble on expression in E. coli? I mean this sequence: `GRYEIRFSGAGGQGLILAGVIMAEAASIYDGKQAVQSQSYGPEARGGASKSEVIISDGPVDYPKATQCDALLALTQEACDKYSADLKEGGVLLVDSDLVTKLPPGNYQTTAFNIINTAKNDVGREIVANIVALGAMVALTGVVSKEAAEKAVLSRVPEAFVELNRKAFQMGFEKAL`
Out: not soluble

In: Please give the result for `MREQISVLTQNLSQTIVGKDEAIRLVLVALLSGGHALLEDVPGVGKTLLAKSLARSINGKFQRVQCTPDLLPTDITGTNIWNPSSREFEFLPGPAFANILLADEINRATPRTQAALLEVMEEKQVTVDGETRLVPHPFFVIATQNPIEYQGTFPLPEAQLDRFALSLSLGYPSEAEELKMLQRQQNPEAIAVGDLESCISLEEVEALQKAVRQVKLTEDLQQYLLRLVRASRTDEDVTLGVSPRGTTALQRATQAFAFLEERDYAIDDDVKFVAPHVLAHRLIPASGKDPKAILQRLLDSVPILEHHHHHH` too.
Out: not soluble

In: Please give the result for `LTRFFGDFFLDIEVKLADVAMMYGLNLGYELQDKTLSNIVEEQLGSTPVLGDQFEWQGLQWVIADVVDHQVTKVGLRLPNEEEEGEEED` too.
Out: not soluble

---

Protocol text: soluble on expression in E. coli; label from the status in PepcDB or PDB records
Measurement type: soluble on expression in E. coli

Consider the reported soluble on expression in E. coli for these sequences:
In: Can you share its soluble on expression in E. coli? I mean this sequence: `MIMKVGIMSDTHDNLSAIRLAVEFFNREGVNLVLHAGDFVAPFVAKELSNLKAPLKGVFGNNDGEREGLREKLGIKDDILTLNLDGLKVVMLHGTDERVVEAFAKSQLYDIVIRGHTHKYGIQEVGRTIVVNPGEVCGYLTGIKSVALLNTTEREVRIINLKTGEILGIISLLEHHHHHH`
Out: not soluble

In: Please give the result for `GMIPFPESRLAAQMSFVVEIDKLKTILRQTLLTDSSRRENDAEHSWHIATMAFLLAEYADEAVQIGRVARMLLIHDIVEIDAGDTFIHDEAGNEDKEERERKAAARLFGLLPPDQAAEYSALWQEYEARETADARFADALDRLQPLLHNFETEGGTWKPHGVTRAKVDKLLPRIEAGSKRLGAYARALVDEAVRRGYLAP` too.
Out: soluble

In: Please give the result for `MVPELKQISRVEAMRLGPGWSHSCHAMLYAANPGQLFGRIPMRFSVLMQMRFDGLLGFPGGFVDRRFWSLEDGLNRVLGLGLGCLRLTEADYLSSHLTEGPHRVVAHLYARQLTLEQLHAVEISAVHSRDHGLEVLGLVRVPLYTQKDRVGGFPNFLSNAFVSTAKCQLLFALKVLNMMPEEKLVEALAAATEKQKKALEKLLPASSAHHHHHH` too.
Out: soluble

In: Please give the result for `MDKSLLLELPILLCCFRALSGSLSMRNDAVNEIVAVKNNFPVIEIVQCRMCHLQFPGEKCSRGRGICTATTEEACMVGRMFKRDGNPWLTFMGCLKNCADVKGIRWSVYLVNFRCCRSHDLCNEDL` too.
Out: not soluble

In: Please give the result for `MSDGIPFAGEPADSHEAIMRATFRALREYGYAGLSIQRIADEADLSKSTFYHHFDGKEDLLLSFQEFILTEFNRIFQIESTGDPEQDIKTFVSLILDDFPDCVETPTKNAVLGSYVEMRAQAVQNPDFREKFTETDELFARQLVQIIEDGIEQGVFADVDPDTVSRFMITILDGVILQSATRNDNPVAEVRDTIDEYIEETLILNT` too.
Out: not soluble

Continuing:
In: Can you share its soluble on expression in E. coli? I mean this sequence: `MGSDKIHHHHHHMFEGPIIDARIKSIASGFRAVSVYVDATSAEEGRFDPRLLGEACDCALADGPAWAEAHLASWSDAYAVFGAKPNRTPCSAQALRKRVLKDGTLSTINPIVDLYNAISLKYAVPVGGENFDAYVGRPHLTVADGSETFDTMVNGEAVNDPPLPGEVIWRDDIGVTCRRWNWRQGTRTRLKTLTGRMWFVLEALETMPDDALAEATDAMVGGLNALMPGCKIASQEIAIAG`
Out: not soluble

In: Please give the result for `MKIDYVSDLHINHWIPWNVNQIKWEKRTREIVNRLISNGNGEVLVIAGDFTEWNQQTLWVLDEAAKQYEKVYFTYGNHDLYLLSKSQKRKYSDSLGRLNDLIQKAADMKNVTPLIKTTETYKGKVFAGDVMWYLPKGIEGWDFFKGVSNDSNYIWLNGYNKVDGVRAMWKESMDWYETLENTQVDVFVSHVPPVHNPYSPFEPNTCYMVDVPFINAKHWVCGHDHLQAEFDKDGTSFHMNCIGYPYDYDNYPSVNVIPGEEVDSYKTFELKTFEIMAGDPLEHHHHHH` too.
Out: not soluble

In: Please give the result for `MGSLGPKVFKLDQLPGTIGKKAAKGASVKFSESSTQAVIKATYLQVFGRDVYEGQRLKVQEIKLENGEISVRDFVRALAKSDLFRKLYWTPFYVCKAIEYIHRRLLGRPTYGRQENNKYFDIASKKGLYAVVDAILDSLEYTETFGEDTVPYERYLEHHHHHH` too.
Out: soluble

In: Please give the result for `MERVAIFIDGSNLYKGLVQHLGSDYRLNFVEFITLLTAGRKLLRAYYYNAPLPPEDPAAKAHQSFLNYLKRVPYVTVRLGRLERRADGFVEKGVDIQIAVDMLRLAFVNAYDIAVLVSGDGDFAEVVRVVQDLGKQVENTTFHALSSHRLAQQADHFYPLDDFPWERLRAQVSPASPEEEA` too.
Out: soluble

In: Please give the result for `MWRSCLRLRDGGRRLLNRPAGGPSASMSPGPTIPSPARAYAPPTERKRFYQNVSITQGEGGFEINLDHRKLKTPQAKLFTVPSEALAIAVATEWDSQQDTIKYYTMHLTTLCNTSLDNPTQRNKDQLIRAAVKFLDTDTICYRVEEPETLVELQRNEWDPIIEWAEKRYGVEISSSTSIMGPSIPAKTREVLVSHLASYNTWALQGIEFVAAQLKSMVLTLGLIDLRLTVEQAVLLSRLEEEYQIQKWGNIEWAHDYELQELRARTAAGTLFIHLCSESTTVKHKLLKE` too.
Out: not soluble

In: Please give the result for `MGSDKIHHHHHHMGEKMLGIINATGSFPSLKKVTGHRSLAALPFGGRYRLIDFMLSNMVNSNIHSVAVFTSHKNRSLMDHVGSGKQWDLDRKRDGLFLFPPNCQCDQDEFGSFAHFRRHIDYFLRAREEYVVITNSHLVTALNFQAVLERHIHTAADITEVCHEGVSLQTYVLKKQLLLDLFDSYKDVEQYSLFDVVREKRGKSLHIATYEHTGYVAIIDSIESYYKHSLEILQPAIWKQLFKKEAPIFTKVKDEPPTRYVKGAVVKNTMIANGSIIEGEVENSVVSRSVKIGKGSIVRNSIIMQKSQIGDNCIIDGVIIDKDVKIGDGVVLKGNADEPYVVEKGSVQNSTINSYS` too.
Out: not soluble

In: Please give the result for `MVFGPGLCIAHRGTIVVNKGARVGENCRIHACTNIGSGRDNIFLAPKIGNGVYIGPGAKIFGSVEIADNIAIGANSVVNRSFYERGISIAGVPAKKISNKGSDGMVIAATKTVSVPVSQETILEHHHHHH` too.
Out: not soluble

In: Please give the result for `MLTIIKTILDVIVGVKERDYVKNTFNQLLKEKNITNYQYIRTAGNQILIDDRDILYVIHDKGWVSRGYGRITDIELSIDDSVAFQSSLSSATGRAIAGGVLAGGVGAIIGGVTGRKNGKKIVHRITLTISFNTPDRPYARVTFLDNQQGVDIYSDEYKRAEEDALYWSKLISSLMN` too.
Out: not soluble
